Entries annotated with measured pIC50
target: α5β1 integrin (Homo sapiens, UniProt P05556+P08648); experiment: In vitro cell adhesion assay: α5β1 integrin mediated adhesion of K562 cells to fibronectin fragment Fn9-10; assay type: cell-based; design: α5β1 integrin mediated adhesion of K562 cells; host or cells: K562 human erythroleukaemia cells; conditions: K562 cells on Fn9-10 coated plates; 0.2 mM MnCl; read-out: b) Cell Adhesion Assay
Sequence (P08648 42-894 limits assumed): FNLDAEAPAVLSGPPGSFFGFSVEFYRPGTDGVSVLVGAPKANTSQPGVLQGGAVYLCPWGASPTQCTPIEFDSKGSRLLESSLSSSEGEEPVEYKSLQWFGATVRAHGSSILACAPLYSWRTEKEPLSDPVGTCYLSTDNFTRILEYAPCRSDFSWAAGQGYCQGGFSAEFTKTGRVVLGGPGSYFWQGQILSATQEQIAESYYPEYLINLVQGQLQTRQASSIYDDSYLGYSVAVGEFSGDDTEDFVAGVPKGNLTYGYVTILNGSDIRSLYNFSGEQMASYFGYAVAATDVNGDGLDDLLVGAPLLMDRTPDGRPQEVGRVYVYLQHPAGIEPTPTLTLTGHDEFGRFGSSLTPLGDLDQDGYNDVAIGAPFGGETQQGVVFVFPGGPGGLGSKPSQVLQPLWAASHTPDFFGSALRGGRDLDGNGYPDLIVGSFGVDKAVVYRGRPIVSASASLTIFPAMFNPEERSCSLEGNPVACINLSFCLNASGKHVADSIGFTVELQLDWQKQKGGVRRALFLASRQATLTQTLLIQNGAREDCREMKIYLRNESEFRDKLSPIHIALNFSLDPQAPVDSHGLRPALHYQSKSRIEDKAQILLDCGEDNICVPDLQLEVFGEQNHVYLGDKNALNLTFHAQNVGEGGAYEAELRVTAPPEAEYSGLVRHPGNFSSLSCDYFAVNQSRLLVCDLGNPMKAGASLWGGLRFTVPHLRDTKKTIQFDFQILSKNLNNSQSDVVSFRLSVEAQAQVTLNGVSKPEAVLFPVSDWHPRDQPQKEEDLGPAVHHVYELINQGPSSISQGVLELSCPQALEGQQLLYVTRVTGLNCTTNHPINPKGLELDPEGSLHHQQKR
Sequence (P08648 895-1049 partner limits assumed): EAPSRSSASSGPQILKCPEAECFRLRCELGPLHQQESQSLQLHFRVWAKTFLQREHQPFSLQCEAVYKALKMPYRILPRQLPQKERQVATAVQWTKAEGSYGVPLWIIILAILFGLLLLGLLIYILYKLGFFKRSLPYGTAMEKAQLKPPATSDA
Sequence (P05556 21-798): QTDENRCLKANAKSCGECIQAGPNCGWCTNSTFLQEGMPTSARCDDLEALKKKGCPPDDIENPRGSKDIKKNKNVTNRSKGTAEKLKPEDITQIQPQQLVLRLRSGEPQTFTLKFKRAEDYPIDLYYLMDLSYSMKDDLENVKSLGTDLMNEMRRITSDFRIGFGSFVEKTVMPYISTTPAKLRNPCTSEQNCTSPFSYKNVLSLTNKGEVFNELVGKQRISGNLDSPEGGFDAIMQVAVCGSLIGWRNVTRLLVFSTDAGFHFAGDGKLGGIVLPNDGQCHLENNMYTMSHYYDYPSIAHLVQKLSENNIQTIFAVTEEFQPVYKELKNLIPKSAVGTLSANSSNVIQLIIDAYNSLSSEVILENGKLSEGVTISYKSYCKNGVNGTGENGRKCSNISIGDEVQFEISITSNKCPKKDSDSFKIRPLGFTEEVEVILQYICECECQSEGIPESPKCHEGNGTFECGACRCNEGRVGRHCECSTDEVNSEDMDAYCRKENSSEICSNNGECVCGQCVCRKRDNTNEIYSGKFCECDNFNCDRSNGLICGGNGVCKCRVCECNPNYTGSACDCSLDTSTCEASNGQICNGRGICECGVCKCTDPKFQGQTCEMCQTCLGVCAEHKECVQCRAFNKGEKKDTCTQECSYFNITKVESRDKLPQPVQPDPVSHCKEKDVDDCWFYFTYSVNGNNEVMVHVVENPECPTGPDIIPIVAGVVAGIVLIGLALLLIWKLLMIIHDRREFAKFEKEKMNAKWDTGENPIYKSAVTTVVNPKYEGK
Expect pIC50 as a plain number equal to -log10 of the molar concentration.

Examples with their reported pIC50 follow.
[[record]]
smiles_repr = "O=C(N[C@@H](Cc1ccc(C2=CCN(C(=O)c3cccc(F)c3)CC2)cn1)C(=O)O)c1c(Cl)cccc1Cl"
recorded_value = 4.32

[[record]]
smiles_repr = "O=C(N[C@@H](Cc1ccc(C2=CCN(Cc3ccc(F)cc3)CC2)cn1)C(=O)O)c1c(Cl)cccc1Cl"
recorded_value = 4.88

[[record]]
smiles_repr = "CCCS(=O)(=O)N1CC=C(c2ccc(C[C@H](NC(=O)c3c(Cl)cccc3Cl)C(=O)O)nc2)CC1"
recorded_value = 5.15


Next, consider the following compound.
*Q* What pIC50 value was documented for this compound, `CS(=O)(=O)N1CC=C(c2ccc(C[C@H](NC(=O)c3c(Cl)cccc3Cl)C(=O)O)nc2)CC1` ?
*A* 4.15
